- experiment-description: Average area under curve at 1 mg/kg intravenous administration to salt depleted dog
- test-context: in vivo
observed-property: AUC (ng·h/mL)

A = CCCC[C@H](N[C@@H](Cc1ccccc1)C(=O)N1CCC(OCOC)CC1)C(=O)N[C@@H](CC1CCCCC1)[C@@H](O)C[C@H](C(=O)NCC(C)(C)N1CCOCC1)C(C)C
B = CCCC[C@H](N[C@@H](Cc1ccccc1)C(=O)N1CCC(OCOC)CC1)C(=O)N[C@@H](CC1CCCCC1)[C@@H](O)C[C@H](C(=O)NCCCN1CCOCC1)C(C)C
C = CCCC[C@H](N[C@@H](Cc1ccccc1)C(=O)N1CCC(OCOC)CC1)C(=O)N[C@@H](CC1CCCCC1)[C@@H](O)C[C@H](C(=O)NCCN1CCOCC1)C(C)C
# input Using measured AUC, arrange the compounds from above in descending sequence. Put the labels in the requested order and write them down.
# output A, C, B
(A: 1840 ng·h/mL, C: 1260 ng·h/mL, B: 693 ng·h/mL)
